Source of measurements: patent US20240390373A1

experiment: Plasma concentration in tumor-bearing mice 8 hours after last dose; assay type: in vivo; conditions: NOD/SCID, mouse, plasma; 12.5 mg/kg QD×14 days, 8 hours after the last dose
Measured Endpoint: concentration at 8 h (ng/mL)

Compound	Val
C[C@@H](NC(=O)c1ncnc(N)c1Cl)c1ncc(C(=O)Nc2cc(C(F)(F)F)c(Cl)cn2)s1 [Compound A]	5100

====

test: Plasma concentration in tumor-bearing mice 8 hours after last dose; format: in vivo; conditions: NOD/SCID, mouse, plasma; 25 mg/kg QD×14 days, 8 hours after the last dose

Smiles	concentration at 8 h [ng/mL]
C[C@@H](NC(=O)c1ncnc(N)c1Cl)c1ncc(C(=O)Nc2cc(C(F)(F)F)c(Cl)cn2)s1	12800
